# Test system: LXRa homodimer (NR concentration 270 nM)
# ASSAY PROCEDURE: PBM binding z-score (relative to random genomic background probes); higher = stronger binding; sequences stand for … in GC…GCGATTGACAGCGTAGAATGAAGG
Recorded PBM binding z-score for the following sequences

Some sequences with known PBM binding z-score results, for comparison:
- BIOPOLYMER SEQUENCE: "ACAGACAGGTGCTGAAGGTAACTCAGGCTATCAT"
  ASSAY SYSTEM: "LXRa homodimer (NR concentration 270 nM)"
  PBM binding z-score: -0.46
- BIOPOLYMER SEQUENCE: "CGTCCAAGGTCATAGGAGCTCAGTGAAGACAGAT"
  ASSAY SYSTEM: "LXRa homodimer (NR concentration 270 nM)"
  PBM binding z-score: 0.569
- BIOPOLYMER SEQUENCE: "TCTTGTAGATCAGCCGGTTAAGAAAGCTGGCCAA"
  ASSAY SYSTEM: "LXRa homodimer (NR concentration 270 nM)"
  PBM binding z-score: -0.223
- BIOPOLYMER SEQUENCE: "CCAGACTGGTGAGAAGGTAACTCAGCCTCGATTA"
  ASSAY SYSTEM: "LXRa homodimer (NR concentration 270 nM)"
  PBM binding z-score: -0.22
- BIOPOLYMER SEQUENCE: "ATATGTATGTTAAGGGTCATTCAGGTTGGTTCGC"
  ASSAY SYSTEM: "LXRa homodimer (NR concentration 270 nM)"
  PBM binding z-score: 3.41

Query: Param readout= PBM binding z-score; system= LXRa homodimer (NR concentration 270 nM); entry= CAAACTAGGTCAAGAGGTCGAAGTCCGCTTCCCG ; returns value.
Result: 1.22

Query: Param readout= PBM binding z-score; system= LXRa homodimer (NR concentration 270 nM); entry= GCAGACAGGTGAAACGCAGGTCACTCAGGGTGGC ; returns value.
Result: 0.579
